Value source: ChEMBL document CHEMBL1145278

- system: RNA-directed RNA polymerase (Hepacivirus hominis)
- experimental.details: Effective dose for RNA dependent RNA polymerase Nonstructural protein 5B (HCV NS5B polymerase) in Hepatitis C virus
parameter: ED50 (µM)
Answers are plain numbers, in µM.

smiles.representation | system | value.reported
Nc1ccc(Oc2ccc(/C=C(\NC(=O)CCC3CCCC3)C(=O)O)cc2)c(C(F)(F)F)c1 | RNA-directed RNA polymerase (Hepacivirus hominis) | 5

**Q:** Lab note: need ED50 with RNA-directed RNA polymerase (Hepacivirus hominis) for entry CCc1ccccc1Oc1ccc(/C=C(\NC(=O)CCC2CCCC2)C(=O)O)cc1 , please look it up.
**A:** 15

* * *

- system: RNA-directed RNA polymerase (Hepacivirus hominis) (UniProt O39930)
- experimental.details: Effective dose for RNA dependent RNA polymerase Nonstructural protein 5B (HCV NS5B polymerase) in Hepatitis C virus
parameter: ED50

compound | ED50
NNC(=O)/C(=C/c1ccc(Oc2ccccc2Br)cc1)NC(=O)c1ccccc1 | > 50 µM
O=C(Nc1ccccc1)/C(=C/c1ccc(Oc2ccccc2Br)cc1)NC(=O)c1ccccc1 | > 50 µM
O=C(O)/C(=C/c1ccc(Oc2ccccc2Br)cc1)NC(=O)C12CC3CC(CC(C3)C1)C2 | > 100 µM
O=C(Cc1ccc(Br)cc1)N/C(=C\c1ccc(Oc2ccccc2Br)cc1)C(=O)O | > 100 µM
O=C(O)/C(=C/c1ccc(Oc2ccccc2Br)cc1)NC(=O)c1ccc(Br)cc1 | > 100 µM

Hi! Can you tell me ED50 for each of these compounds?
1. O=C(O)/C(=C/c1ccc(Oc2ccccc2Br)cc1)NC(=O)c1ccccc1O
2. O=C(O)/C(=C/c1ccc(Oc2ccccc2Br)cc1)NC(=O)c1ccccc1F
3. NC(=O)/C(=C/c1ccc(Oc2ccccc2Br)cc1)NC(=O)c1ccccc1
4. O=C(O)CNC(=O)/C(=C/c1ccc(Oc2ccccc2Br)cc1)NC(=O)c1ccccc1
5. O=C(Nc1ccccc1O)/C(=C/c1ccc(Oc2ccccc2Br)cc1)NC(=O)c1ccccc1
6. O=C(O)/C(=C/c1ccc(Oc2ccccc2Br)cc1)NC(=O)C1CC2CCC1C2 (centres undefined)

**A:**
1. > 100 µM
2. > 100 µM
3. 20 µM
4. > 50 µM
5. > 50 µM
6. > 100 µM

Hi! Can you tell me ED50 for each of these compounds?
1. O=C(Cc1ccc(F)cc1)N/C(=C\c1ccc(Oc2ccccc2Br)cc1)C(=O)O
2. CCc1ccccc1C(=O)N/C(=C\c1ccc(Oc2ccccc2Br)cc1)C(=O)O
3. CONC(=O)/C(=C/c1ccc(Oc2ccccc2Br)cc1)NC(=O)c1ccccc1
4. O=C(CCC1CCCC1)N/C(=C\c1ccc(Oc2ccc(F)cc2Br)cc1)C(=O)O
5. Cc1ccc(CCC(=O)N/C(=C\c2ccc(Oc3ccccc3Br)cc2)C(=O)O)cc1

**A:**
1. > 100 µM
2. 70 µM
3. > 50 µM
4. 12 µM
5. > 100 µM

* * *

- system: RNA-directed RNA polymerase (Hepacivirus hominis)
- experimental.details: Ratio for cellular to RNA dependent RNA polymerase Nonstructural protein 5B activity in Hepatitis C virus
Returns: string. Value is rule met if measured Ratio is below 2, and rule not met if it is greater than or equal to it.

Use the examples below as a reference point.
smiles.representation | class.assignment
O=C(CCC1CCCC1)N/C(=C\c1ccc(Oc2ccc(F)cc2Br)cc1)C(=O)O | rule met
Nc1ccc(Oc2ccc(/C=C(\NC(=O)CCC3CCCC3)C(=O)O)cc2)c(C(F)(F)F)c1 | rule met

**Q:** Threshold test, Ratio < 2: O=C(O)/C(=C/c1ccc(Oc2ccccc2Br)cc1)NC(=O)c1ccccc1
**A:** rule not met

**Q:** Threshold test, Ratio < 2: O=C(NCCO)/C(=C/c1ccc(Oc2ccccc2Br)cc1)NC(=O)c1ccccc1
**A:** rule not met

**Q:** Threshold test, Ratio < 2: O=C(CCC1CCCC1)N/C(=C\c1ccc(Oc2ccccc2C(F)(F)F)cc1)C(=O)O
**A:** rule met

* * *

- experimental.details: Clearance measured in Sprague Dawley rat dosed at 5mg/kg
- Type: ADME, organism-based
- test.conditions: in vivo
Assign clearance to each entry below.
Answers are plain numbers, in mL/min/kg.

smiles.representation | clearance / mL/min/kg
O=C(O)/C(=C/c1ccc(Oc2ccccc2Br)cc1)NC(=O)c1ccccc1 | 3.33

**Q:** What does the record list as clearance for O=C(NCCO)/C(=C/c1ccc(Oc2ccccc2Br)cc1)NC(=O)c1ccccc1 ?
**A:** 53.3

* * *

Assign CC50 to each entry below.
- system: RNA-directed RNA polymerase (Hepacivirus hominis) (UniProt O39930)
- experimental.details: Cytotoxic concentration against RNA dependent RNA polymerase Nonstructural protein 5B (HCV NS5B polymerase) in Hepatitis C virus

Answered cases to consult:
smiles.representation | CC50
O=C(Cc1ccc(Br)cc1)N/C(=C\c1ccc(Oc2ccccc2Br)cc1)C(=O)O | > 100 µM
O=C(CCc1ccc(Cl)cc1)N/C(=C\c1ccc(Oc2ccccc2Br)cc1)C(=O)O | > 100 µM
CCc1ccccc1Oc1ccc(/C=C(\NC(=O)CCC2CCCC2)C(=O)O)cc1 | > 100 µM
O=C(CCC1CCCC1)N/C(=C\c1ccc(Oc2ccccc2Br)cc1)C(=O)O | > 100 µM
NC(=O)/C(=C/c1ccc(Oc2ccccc2Br)cc1)NC(=O)c1ccccc1 | 45 µM

Hi! Can you tell me CC50 for each of these compounds?
1. O=C(Cc1ccc(Cl)cc1)N/C(=C\c1ccc(Oc2ccccc2Br)cc1)C(=O)O
2. O=C(CCc1ccc(F)cc1)N/C(=C\c1ccc(Oc2ccccc2Br)cc1)C(=O)O
3. O=C(Nc1ccccc1O)/C(=C/c1ccc(Oc2ccccc2Br)cc1)NC(=O)c1ccccc1
4. O=C(O)/C(=C/c1ccc(Oc2ccccc2Br)cc1)NC(=O)c1ccc(F)c(F)c1
5. O=C(O)/C(=C/c1ccc(Oc2ccccc2Br)cc1)NC(=O)c1ccc(Cl)cc1

**A:**
1: > 100 µM; 2: > 100 µM; 3: > 50 µM; 4: > 100 µM; 5: > 100 µM

* * *

- system: RNA-directed RNA polymerase (Hepacivirus hominis, UniProt O39930)
- Sequence (O39930 whole entry): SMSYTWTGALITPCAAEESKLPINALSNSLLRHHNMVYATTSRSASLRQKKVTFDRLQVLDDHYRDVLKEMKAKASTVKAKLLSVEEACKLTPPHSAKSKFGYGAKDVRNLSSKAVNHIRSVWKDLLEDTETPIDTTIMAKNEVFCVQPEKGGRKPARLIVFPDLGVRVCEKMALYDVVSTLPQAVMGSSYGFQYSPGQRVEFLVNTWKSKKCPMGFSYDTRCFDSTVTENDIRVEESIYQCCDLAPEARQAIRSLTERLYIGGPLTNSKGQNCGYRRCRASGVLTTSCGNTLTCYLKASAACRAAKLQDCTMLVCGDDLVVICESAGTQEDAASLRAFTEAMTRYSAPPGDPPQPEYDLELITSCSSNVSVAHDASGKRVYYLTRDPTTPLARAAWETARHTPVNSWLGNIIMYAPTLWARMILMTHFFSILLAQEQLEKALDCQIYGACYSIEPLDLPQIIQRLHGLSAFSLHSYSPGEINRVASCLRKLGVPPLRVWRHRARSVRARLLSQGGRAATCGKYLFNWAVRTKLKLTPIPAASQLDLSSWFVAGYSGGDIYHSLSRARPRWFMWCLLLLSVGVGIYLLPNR
Assign pIC50 to each entry below.
One number for each entry, as −log10 of the molar value.

Answered cases to consult:
molecule | system | pIC50
O=C(CCC1CCCC1)N/C(=C\c1ccc(Oc2ccc(F)cc2Br)cc1)C(=O)O | RNA-directed RNA polymerase (Hepacivirus hominis, UniProt O39930) | 4.82
O=C(Nc1ccccc1C(=O)O)/C(=C/c1ccc(Oc2ccccc2Br)cc1)NC(=O)c1ccccc1 | RNA-directed RNA polymerase (Hepacivirus hominis, UniProt O39930) | 6.40
O=C(CC1CCCC1)N/C(=C\c1ccc(Oc2ccccc2Br)cc1)C(=O)O | RNA-directed RNA polymerase (Hepacivirus hominis, UniProt O39930) | 6.07

Hi! Can you tell me pIC50 for each of these molecules?
1. NNC(=O)/C(=C/c1ccc(Oc2ccccc2Br)cc1)NC(=O)c1ccccc1
2. O=C(O)/C(=C/c1ccc(Oc2ccccc2I)cc1)NC(=O)C(O)c1ccccc1 (configuration not stated)
3. O=C(O)/C(=C/c1ccc(Oc2ccccc2I)cc1)NC(=O)C1CC1
4. O=C(CC1CCCCC1)N/C(=C\c1ccc(Oc2ccccc2Br)cc1)C(=O)O

**A:**
1. 6.00
2. 5.51
3. 5.55
4. 5.66

* * *

- experimental.details: Maximum concentration upon oral administration to rat at 5 mg/kg
- Type: ADME, organism-based
- Parameters: dose 5 mg/kg, route oral
- test.conditions: in vivo
parameter: Cmax (µM)
Answers are plain numbers, in µM.

smiles.representation | Cmax [µM]
O=C(O)/C(=C/c1ccc(Oc2ccccc2Br)cc1)NC(=O)c1ccccc1 | 9

Read the next record carefully.
**Q:** What does the record list as Cmax for O=C(NCCO)/C(=C/c1ccc(Oc2ccccc2Br)cc1)NC(=O)c1ccccc1 ?
**A:** 1.5

* * *

Let's go through some pIC50 measurements on RNA-directed RNA polymerase (Hepacivirus hominis) together.
One number for each entry, as −log10 of the molar value.

Answered cases to consult:
compound | system | pIC50
CC(O)C(=O)N/C(=C\c1ccc(Oc2ccccc2I)cc1)C(=O)O (stereo not given) | RNA-directed RNA polymerase (Hepacivirus hominis) | 5.32
O=C(CCc1ccc(Cl)cc1)N/C(=C\c1ccc(Oc2ccccc2Br)cc1)C(=O)O | RNA-directed RNA polymerase (Hepacivirus hominis) | 6.30

Hi! Can you tell me pIC50 for each of these compounds?
1. O=C(O)/C(=C/c1ccc(Oc2ccccc2Br)cc1)NC(=O)c1ccc(F)cc1F
2. CCc1ccccc1Oc1ccc(/C=C(\NC(=O)CCC2CCCC2)C(=O)O)cc1
3. NC(=O)/C(=C/c1ccc(Oc2ccccc2Br)cc1)NC(=O)c1ccccc1
4. O=C(CCC1CCCC1)N/C(=C\c1ccc(Oc2ccccc2C(F)(F)F)cc1)C(=O)O
5. O=C(CO)N/C(=C\c1ccc(Oc2ccccc2I)cc1)C(=O)O
6. O=C(O)/C(=C/c1ccc(Oc2ccccc2Br)cc1)NC(=O)c1ccccc1F

**A:**
1: 6.64; 2: 5.15; 3: 6.30; 4: 5.20; 5: 5.70; 6: 6.74

Hi! Can you tell me pIC50 for each of these compounds?
1. O=C(Cc1ccc(C(F)(F)F)cc1)N/C(=C\c1ccc(Oc2ccccc2Br)cc1)C(=O)O
2. O=C(CCC1CCCC1)N/C(=C\c1ccc(Oc2ccccc2I)cc1)C(=O)O
3. O=C(O)/C(=C/c1ccc(Oc2ccccc2Br)cc1)NC(=O)c1ccc(Br)cc1
4. CONC(=O)/C(=C/c1ccc(Oc2ccccc2Br)cc1)NC(=O)c1ccccc1
5. O=C(CCC1CCCC1)N/C(=C\c1ccc(Oc2ccccc2Br)cc1)C(=O)O
6. O=C(Nc1ccc(O)cc1)/C(=C/c1ccc(Oc2ccccc2Br)cc1)NC(=O)c1ccccc1
7. O=C(O)CCC(=O)N/C(=C\c1ccc(Oc2ccccc2I)cc1)C(=O)O
8. O=C(O)CNC(=O)/C(=C/c1ccc(Oc2ccccc2Br)cc1)NC(=O)c1ccccc1

**A:**
6.00
5.15
6.92
6.10
5.22
4.92
6.10
7.22

Hi! Can you tell me pIC50 for each of these compounds?
1. O=C(O)/C(=C/c1ccc(Oc2ccccc2Br)cc1)NC(=O)c1ccc(F)c(F)c1
2. Cc1ccc(CCC(=O)N/C(=C\c2ccc(Oc3ccccc3Br)cc2)C(=O)O)cc1

**A:**
1: 6.64; 2: 5.59
